# assaySystem: human glucagon receptor (human, UniProt P47871 26-477)
# Sequence (P47871 26-477): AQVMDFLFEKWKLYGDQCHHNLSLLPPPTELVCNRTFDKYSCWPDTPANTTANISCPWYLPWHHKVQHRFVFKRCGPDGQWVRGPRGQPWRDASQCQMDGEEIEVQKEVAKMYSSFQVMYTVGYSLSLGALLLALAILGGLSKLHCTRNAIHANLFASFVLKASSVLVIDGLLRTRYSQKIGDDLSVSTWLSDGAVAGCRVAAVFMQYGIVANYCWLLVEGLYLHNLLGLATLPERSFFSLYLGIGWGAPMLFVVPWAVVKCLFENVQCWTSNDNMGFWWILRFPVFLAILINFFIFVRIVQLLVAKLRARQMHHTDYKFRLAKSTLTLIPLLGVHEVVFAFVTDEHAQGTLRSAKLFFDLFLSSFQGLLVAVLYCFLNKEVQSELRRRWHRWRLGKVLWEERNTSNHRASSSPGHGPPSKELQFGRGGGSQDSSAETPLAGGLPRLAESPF
# assayRemarks: cell-based or functional assay
Where no end group is shown, it is not given here. [ ]: non-standard residue; d: D form. Bip(2'-Et-4'-OMe) = CCc1cc(OC)ccc1-c1ccc(C[C@H](N)C(=O)O)cc1; αMePhe(2-F) = C[C@](N)(Cc1ccccc1F)C(=O)O; αMeBip(OMe) = alpha-methylated Bip(OMe); hhPhe = N[C@@H](CCCc1ccccc1)C(=O)O; αMeAPPA = not defined here; αMeS = C[C@](N)(CO)C(=O)O; Aib = CC(C)(N)C(=O)O
measuredEndpoint: cAMP production (pmol/ml/µg prt) with saturated glucagon peptide, at 10 nM

// lookup cAMP production (pmol/ml/µg prt) with saturated glucagon peptide, at 10 nM for VHSEGTFTSD[Bip(2'-Et-4'-OMe)][αMeAPPA] (not fully specified (C-terminus); printed as VHSEGTFTSD-Bip(OMe)-(αMe-APPA); reading uncertain) [Seq. ID. No. 87] 3 pmol/ml/µg prt

// lookup cAMP production (pmol/ml/µg prt) with saturated glucagon peptide, at 10 nM for VH[Aib]EGT[αMePhe(2-F)]T[αMeS]D[αMeBip(OMe)][hhPhe]-NH2 [Seq. ID. No. 47] 6 pmol/ml/µg prt
